Target: recombinant active human PAI-1 (Homo sapiens (Human), UniProt P05121)
Sequence (P05121 24-402): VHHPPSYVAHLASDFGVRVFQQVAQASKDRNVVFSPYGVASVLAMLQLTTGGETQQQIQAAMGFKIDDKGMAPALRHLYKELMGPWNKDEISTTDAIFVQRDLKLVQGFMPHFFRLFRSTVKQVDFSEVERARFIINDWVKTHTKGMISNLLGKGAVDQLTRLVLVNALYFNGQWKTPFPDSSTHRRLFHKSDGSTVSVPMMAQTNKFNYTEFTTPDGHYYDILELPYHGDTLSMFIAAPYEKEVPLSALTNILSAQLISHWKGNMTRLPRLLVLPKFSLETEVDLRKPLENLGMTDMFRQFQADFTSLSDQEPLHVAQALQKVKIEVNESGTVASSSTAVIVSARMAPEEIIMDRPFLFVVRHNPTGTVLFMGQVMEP
Assay: Fluorometric PAI-1/uPA IC50 plate assay at pH 7.8
Assay type: biochemical
Conditions: physiologic buffer
pIC50: −log10 of the molar value.
ATTRIBUTE MEASURED: pIC50

P: O=C1S/C(=C\c2ccc(O)c(O)c2)C(=O)N1Cc1ccc(Br)cc1
Q: NC(=O)[C@H](Cc1ccccc1)NS(=O)(=O)c1ccc(O)c(O)c1
R: CCCCCCCCN(CCCCCC)S(=O)(=O)c1ccc(O)c(O)c1
Arrange by pIC50, high to low. Write the labels out in the order the request specifies. R, P, Q
(R: 5.87, P: 4.77, Q: 4.53)

P: O=C(Nc1ccccc1)[C@@H]1CCCN1S(=O)(=O)c1ccc(O)c(O)c1
Q: O=S(=O)(c1ccc(O)c(O)c1)N(CCc1ccccn1)S(=O)(=O)c1ccc(O)c(O)c1
Just curious, which one has the larger pIC50 reading, P or Q ? Respond with the label that goes with your answer. Q
(Q: 5.41, P: 3.26)

* * *

Target: recombinant active human PAI-1 (Homo sapiens (Human), UniProt P05121)
Test: Fluorometric PAI-1/uPA IC50 plate assay at pH 7.4
Format: biochemical
Details: physiologic buffer with 10% human plasma, read-out: PAI-1/uPA IC50 in 10% plasma buffer
pIC50: −log10 of the molar value.
ATTRIBUTE MEASURED: pIC50

# annotated cases, reported pIC50 shown
Cc1ccc(CNC(=O)C(=O)NN)cc1F [C305] :: 4.21
Cc1cc(CNC(=O)CCc2ccc(O)c(O)c2)ccc1F [C358] :: 3.21
NNC(=O)C(=O)NCc1ccc(F)c(C(F)(F)F)c1 [C261] :: 4.16

P: O=C(NCc1ccc(Cl)c(C(F)(F)F)c1)c1ccc(O)c(O)c1 [C348]
Q: CONC(=O)C(=O)NCc1ccc(Cl)c(C(F)(F)F)c1 [C320]
R: Cc1ccc(F)cc1CNC(=O)C(=O)NN [C341]
Rank descending by pIC50. Put the labels in the requested order and list them out. P, Q, R

* * *

Target: recombinant active human PAI-1 (Homo sapiens (Human))
Assay: Fluorometric PAI-1/tPA IC50 plate assay at pH 7.8
Type: biochemical
Conditions: physiologic buffer
pIC50: −log10 of the molar value.
ATTRIBUTE MEASURED: pIC50

Reference set, count: 5
O=S(=O)(NCc1ccccc1)c1ccc(O)c(O)c1 :: 4.24
CCCCCCCCCCCCN(S(=O)(=O)c1ccc(O)c(O)c1)S(=O)(=O)c1ccc(O)c(O)c1 :: 5.84
O=S(=O)(c1ccc(O)c(O)c1)N(c1ccc(-c2ccccc2)cc1)S(=O)(=O)c1ccc(O)c(O)c1 :: 6.29
CC(C)(C)OC(=O)NCCCOC(=O)c1cc(O)c(O)c(O)c1 :: 3.24
CCCCCCCCNC(=O)c1cc(O)c(O)c(O)c1 :: 5.66

I: O=S(=O)(c1ccc(O)c(O)c1)N(CCc1ccccn1)S(=O)(=O)c1ccc(O)c(O)c1
II: CCCCCCCCN(S(=O)(=O)c1ccc(O)c(O)c1)S(=O)(=O)c1cc(F)c(O)c(F)c1
Between the two listed entries I and II , which has its pIC50 at the higher number? Respond using the label that marks the chosen record. II

* * *

Target: recombinant active human PAI-1 (Homo sapiens (Human), UniProt P05121)
Assay: Fluorometric PAI-1/uPA IC50 plate assay at pH 7.4
Type: biochemical
Conditions: physiologic buffer with 10% human plasma, read-out: PAI-1/uPA IC50 in 10% plasma buffer
pIC50: −log10 of the molar value.
ATTRIBUTE MEASURED: pIC50

Some solved entries appear below for comparison.
NNC(=O)C(=O)NCc1cc(C(F)(F)F)cc(C(F)(F)F)c1 :: 3.52
NNC(=O)C(=O)NCc1ccc(C(F)(F)F)cc1 :: 4.19
NNC(=O)CCC(=O)NCc1ccc(Cl)c(C(F)(F)F)c1 :: 3.85
O=C(CCc1ccc(O)c(O)c1)NCc1cccc(C(F)(F)F)c1 :: 3.06
Cc1cc(Cl)ccc1CNC(=O)C(=O)NN :: 3.92

P: NNC(=O)C(=O)NCc1ccc(Cl)c(C(F)(F)F)c1
Q: CCCCCCNC(=O)C(=O)NN
R: O=C(CCc1ccc(O)c(O)c1)NCc1cccc(OC(F)(F)F)c1
S: O=C(NCc1ccc(C(F)(F)F)cc1)c1ccc(O)c(O)c1
T: O=C(NO)C(=O)NCc1ccc(Cl)c(C(F)(F)F)c1
// sort entries: pIC50, high to low Use the labels to give the ranking in the order requested. P, T, S, R, Q

I: NNC(=O)C(=O)NCc1cccc(F)c1
II: NNC(=O)C(=O)NCc1cccc(Cl)c1
Returns the identifier with the smallest measured pIC50 among I and II . In your reply, give the label of the chosen option. I

I: COC(=O)CCC(=O)NCc1ccc(F)c(C(F)(F)F)c1
II: NNC(=O)C(=O)NCc1cccc(Cl)c1Cl
Lab log: flag the item ( I or II ) with the smaller pIC50 figure. To answer, give the label that identifies your chosen option. I
(I: 3.32, II: 3.97)
